Test: in vitro
Settings: human, hela cells, % viability
reported-metric: viability at 28.5 h, 10 µM (%)
Write the answer as a number in %, unit excluded.

Worked cases, viability at 28.5 h, 10 µM given:
compound	viability at 28.5 h, 10 µM (%)
Oc1ccc(-c2oncc2-c2ccccc2)c(O)c1 [CBK288228]	96.2
Cn1nc(C2CCN(C(=O)c3cccc(F)c3)CC2)c2cccnc21 [CBK284898]	94
O=[N+]([O-])c1ccc(O)c(C(C#Cc2ccccc2)N2CCOCC2)c1 (stereo not shown) [CBK262741]	93.2
CCc1csc(C2CN3CCCC3CO2)n1 (stereo not shown) [CBK304793]	89.4
Cc1cc(OCC2CCN(C(=O)OC(C)(C)C)CC2)ccc1Br [CBK175091]	108
Cc1ccncc1C(=O)NCc1ccccc1 [CBK200193]	110
COc1ccc([N+](=O)[O-])cc1NC(=O)c1ccc(-c2cc3ccccc3oc2=O)cc1 [CBK267325]	79.1
CC(C)[C@H](CO)Nc1nccnc1-c1ccco1 [CBK037390]	99
COc1cccc(NC(=O)c2ccnc(Cl)c2)c1 [CBK174661]	104

Then this compound:
Find the recorded viability at 28.5 h, 10 µM belonging to O=S(=O)(NCCSCc1c(Cl)cccc1Cl)c1ccc(Cl)cc1 [CBK265304] and report it. 91.2

* * *

Experiment: in vitro
Conditions: human, hela cells, % viability
viability at 28.5 h, 10 µM values by entry
Write the answer as a number in %, unit excluded.

Worked cases, viability at 28.5 h, 10 µM given:
compound	viability at 28.5 h, 10 µM / %
CCNC(=O)Nc1ccc2ccc(-c3ccc(SC)cc3)nc2n1	90.9
COc1ccc(-n2c(=O)[nH]cc(C(=O)N3CCc4ccccc43)c2=O)cc1OC	105
CCOC(=O)c1cnc2ccc(F)cc2c1N1CCN(C)CC1	90.1
CC(=O)Nc1ccc(CNC(=O)c2cccnc2OCC(F)(F)F)cc1	91.5
Cn1ccnc1CN1CCNC(=O)C1c1ccccc1C(F)(F)F (centres unmarked)	85.1

Find the recorded viability at 28.5 h, 10 µM belonging to C1=NC2C(COCc3ccccc3)CCC2N1c1ccccc1 (centres unmarked) and report it. 107

Another compound to check: `O=C(N[C@H]1CO[C@H]2[C@@H]1OC[C@@H]2Nc1nccc(-c2cccs2)n1)c1cccs1` 106

Another compound to check: COc1ccc(OC)c(Nc2nc(NCC3CCCO3)c3ccccc3n2)c1 (centres unmarked) [CBK268403C] 90.9

Another compound to check: COc1ccc(C(c2ccccn2)N(C)C(=O)C2CCN(S(=O)(=O)C(C)C)CC2)cc1 (centres unmarked) 88.2

Another compound to check: O=C(CC1NC(=O)NC1=O)Nc1cccc2ccccc12 (centres unmarked) 90.3

Another compound to check: O=C(O)CCC(=O)N1CCCC2(CCN(Cc3ccccc3)C2)C1 (centres unmarked) 97

* * *

Experiment: in vitro
Details: human, hela cells, % viability
Flag rule - viability at 28.5 h, 10 µM less than 90% flags 1.0; the remaining entries get 0.0.

compound	label
CC1CCCCN1CCNC(=O)c1ccc(Cn2c(=S)[nH]c3ccccc3c2=O)cc1 (stereo not shown)	0.0

Field: below-cutoff. Rule: recorded viability at 28.5 h, 10 µM strictly less than 90%. Subject: `O=C(c1ccc2ncccc2c1)N1CCN(Cc2ccccc2)CC1` 0.0

Another compound to check: CC(=O)N1c2ccc(C(O)CN3CCCC(C)C3)cc2CC1C (stereo not shown) 0.0
